Answer each item with its documented IC50.
- Assayed System: Cyclin-dependent kinase 2/G1/S-specific cyclin-E1 (Homo sapiens)

INSERT INTO assay_data (cpd_smiles, assayed_system, endpoint_value) VALUES
  ('COCCNS(=O)(=O)c1ccc(Nc2nccc(-c3cnc4cccnn34)n2)cc1', 'Cyclin-dependent kinase 2/G1/S-specific cyclin-E1 (Homo sapiens)', '< 3 nM'),
  ('COCCNS(=O)(=O)c1ccc(Nc2nccc(-c3cnc4ccc(C#N)cn34)n2)cc1', 'Cyclin-dependent kinase 2/G1/S-specific cyclin-E1 (Homo sapiens)', '< 3 nM');

Next compound, please.
Memo: CNS(=O)(=O)c1ccc(Nc2nccc(-c3cnc4cccnn34)n2)cc1 , reported IC50: < 3 nM
